# target.desc: T1, recombinant human EGFR extracellular domain with 6xHis (human, UniProt P00533 25-645)
# T1 construct: In-house produced; also called 6xHis EGFR ECD; soluble human EGFR ECD; not shown: 6xHis tag
# protocol.text: SPR competition, competitor Ab-11
Kind request: treat 80% as inclusive, so % inhibition at 80% or higher is yes, anything lower is no.

{"binder": "antibody 1284 (antibody, human IgG1, kappa, V domains shown, Chimeric IgG1 kappa) VH: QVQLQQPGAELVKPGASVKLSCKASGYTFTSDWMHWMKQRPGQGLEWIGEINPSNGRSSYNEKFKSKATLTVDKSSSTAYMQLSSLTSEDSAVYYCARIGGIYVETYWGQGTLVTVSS VL: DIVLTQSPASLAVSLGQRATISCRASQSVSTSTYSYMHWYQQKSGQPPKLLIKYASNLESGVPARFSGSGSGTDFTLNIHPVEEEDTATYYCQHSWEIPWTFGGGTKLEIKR", "category": "no"}
{"binder": "antibody 1320 (antibody, human IgG1, kappa, V domains shown, Chimeric IgG1 kappa) VH: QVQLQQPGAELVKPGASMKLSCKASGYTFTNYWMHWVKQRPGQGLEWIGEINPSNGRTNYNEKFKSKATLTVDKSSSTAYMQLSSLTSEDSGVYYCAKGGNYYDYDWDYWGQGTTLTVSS VL: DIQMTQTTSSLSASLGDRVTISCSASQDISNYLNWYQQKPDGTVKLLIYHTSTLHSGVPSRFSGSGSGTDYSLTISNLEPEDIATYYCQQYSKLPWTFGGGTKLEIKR", "category": "no"}
{"binder": "antibody 1260 (antibody, human IgG1, kappa, V domains shown, Chimeric IgG1 kappa) VH: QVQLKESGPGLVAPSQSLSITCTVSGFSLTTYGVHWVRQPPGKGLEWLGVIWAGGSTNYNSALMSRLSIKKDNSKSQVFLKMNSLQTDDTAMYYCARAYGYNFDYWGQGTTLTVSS VL: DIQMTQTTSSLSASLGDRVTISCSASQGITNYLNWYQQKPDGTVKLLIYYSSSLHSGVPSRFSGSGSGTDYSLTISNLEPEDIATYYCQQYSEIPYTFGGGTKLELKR", "category": "yes"}
{"binder": "antibody 1347 (antibody, human IgG1, kappa, V domains shown, Chimeric IgG1 kappa) VH: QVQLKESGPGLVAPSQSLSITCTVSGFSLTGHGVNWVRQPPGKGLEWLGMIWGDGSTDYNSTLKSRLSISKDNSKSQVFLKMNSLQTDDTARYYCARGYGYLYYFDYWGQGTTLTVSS VL: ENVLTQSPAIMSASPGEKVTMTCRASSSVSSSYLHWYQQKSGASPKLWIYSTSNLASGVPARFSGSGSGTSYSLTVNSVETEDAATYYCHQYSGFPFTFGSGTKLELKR", "category": "yes"}
{"binder": "antibody 1208 (antibody, human IgG1, kappa, V domains shown, Chimeric IgG1 kappa; also called clone 1208) VH: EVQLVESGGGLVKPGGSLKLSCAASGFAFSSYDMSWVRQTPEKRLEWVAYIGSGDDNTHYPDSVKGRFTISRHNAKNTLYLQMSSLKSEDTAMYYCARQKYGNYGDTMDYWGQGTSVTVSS VL: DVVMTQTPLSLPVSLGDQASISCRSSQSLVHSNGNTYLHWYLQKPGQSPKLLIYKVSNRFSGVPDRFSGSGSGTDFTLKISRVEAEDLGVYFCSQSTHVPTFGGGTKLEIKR", "category": "no"}
{"binder": "antibody 1308 (antibody, human IgG1, kappa, V domains shown, Chimeric IgG1 kappa) VH: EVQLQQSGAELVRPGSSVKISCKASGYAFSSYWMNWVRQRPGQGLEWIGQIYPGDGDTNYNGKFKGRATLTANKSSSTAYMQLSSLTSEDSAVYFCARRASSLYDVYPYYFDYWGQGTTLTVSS VL: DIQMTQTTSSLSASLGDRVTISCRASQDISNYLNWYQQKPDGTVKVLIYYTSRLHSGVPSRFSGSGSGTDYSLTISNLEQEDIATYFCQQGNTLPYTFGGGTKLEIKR", "category": "yes"}
{"binder": "antibody 992 (antibody, human IgG1, kappa, V domains shown, Chimeric mouse/human IgG1 kappa; the VL entry includes the human kappa constant region) VH: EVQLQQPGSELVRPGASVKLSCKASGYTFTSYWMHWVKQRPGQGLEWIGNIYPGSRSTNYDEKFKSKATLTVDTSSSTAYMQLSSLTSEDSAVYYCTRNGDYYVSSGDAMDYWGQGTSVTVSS VL: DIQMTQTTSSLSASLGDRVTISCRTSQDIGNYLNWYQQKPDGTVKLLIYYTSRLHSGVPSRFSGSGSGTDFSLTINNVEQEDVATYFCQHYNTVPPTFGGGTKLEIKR", "category": "no"}
{"binder": "antibody 1042 (antibody, human IgG1, kappa, V domains shown, Chimeric IgG1 kappa; RA- left out of the VH entry) VH: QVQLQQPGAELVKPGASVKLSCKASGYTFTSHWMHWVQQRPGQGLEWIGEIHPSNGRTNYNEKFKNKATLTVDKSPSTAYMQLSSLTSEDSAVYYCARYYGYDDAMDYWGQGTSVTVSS VL: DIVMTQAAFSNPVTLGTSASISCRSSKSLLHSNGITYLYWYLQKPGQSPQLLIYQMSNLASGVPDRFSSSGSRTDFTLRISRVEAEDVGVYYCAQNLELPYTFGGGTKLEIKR", "category": "no"}
{"binder": "antibody 1261 (antibody, human IgG1, kappa, V domains shown, Chimeric IgG1 kappa) VH: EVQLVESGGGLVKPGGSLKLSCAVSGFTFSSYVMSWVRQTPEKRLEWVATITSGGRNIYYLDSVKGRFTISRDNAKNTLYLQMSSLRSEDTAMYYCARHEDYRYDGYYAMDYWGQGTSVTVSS VL: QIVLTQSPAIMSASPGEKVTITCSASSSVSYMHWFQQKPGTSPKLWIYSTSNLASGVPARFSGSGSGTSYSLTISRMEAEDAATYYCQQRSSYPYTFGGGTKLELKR", "category": "yes"}
{"binder": "antibody 1030 (antibody, human IgG1, kappa, V domains shown, Chimeric IgG1 kappa) VH: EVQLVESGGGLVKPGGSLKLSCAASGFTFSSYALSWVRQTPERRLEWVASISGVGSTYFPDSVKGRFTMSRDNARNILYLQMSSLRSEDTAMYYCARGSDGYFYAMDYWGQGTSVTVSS VL: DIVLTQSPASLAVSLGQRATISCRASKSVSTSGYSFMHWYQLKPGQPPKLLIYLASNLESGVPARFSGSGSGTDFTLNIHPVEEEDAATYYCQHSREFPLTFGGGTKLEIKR", "category": "no"}
